# System: HCC-2998 colon
# test: NCI tumour cell line growth inhibition, 48 h; in the data active means GI50 below about 0.43 µM; inactive means the rest
Classes used: active, inactive

- compound: "COc1ccc2c(c1)CCC1C2CCC2(C)C(NC(=O)CCCCC3CCSS3)CCC12 (configuration not stated)"
  assay-system: "HCC-2998 colon"
  label-class: "inactive"
- compound: "NCC[PH+](c1ccccc1)c1ccccc1.NCC[PH+](c1ccccc1)c1ccccc1.[Cl-].[Pt+4]"
  assay-system: "HCC-2998 colon"
  label-class: "inactive"
- compound: "O=C(Cc1csc2nc(-c3ccc(Br)cc3)cn12)N/N=C/c1ccccc1O"
  assay-system: "HCC-2998 colon"
  label-class: "inactive"
- compound: "CC[C@]1(O)C[C@@H]2CN(CCc3c([nH]c4ccccc34)[C@@](C(=O)OC)(c3cc4c(cc3OC)N(C)[C@H]3[C@@](O)(C(=O)OC)[C@H](OC(=O)CCCBr)[C@]5(CC)C=CCN6CC[C@]43[C@@H]65)C2)C1"
  assay-system: "HCC-2998 colon"
  label-class: "active"
- compound: "COc1ccc(-c2nn(-c3cccc(Cl)c3)cc2-c2c(C#N)c(=O)n3[nH]c(-c4ccc(C)o4)nc3c2C#N)cc1"
  assay-system: "HCC-2998 colon"
  label-class: "inactive"
- compound: "O=C(Nc1ccc(-n2cc(-c3ccncc3)c(-c3ccc(Cl)c(O)c3)n2)cc1)c1ccc(Cl)c(Cl)c1"
  assay-system: "HCC-2998 colon"
  label-class: "inactive"
- compound: "COc1cc(-c2ccc[nH]2)[nH]c1/C=C1\\N=C(C)C(C(=O)NC(C)C)=C1C"
  assay-system: "HCC-2998 colon"
  label-class: "inactive"

----------
# TGI per entry
# Tested on: U251 CNS
# test: NCI tumour cell line growth inhibition, 48 h

- molecule: "CN(Cc1ccccc1)C(=S)S"
  assay-system: "U251 CNS"
  TGI: "> 100 µM"
- molecule: "Cc1cc(N(CCC#N)CCC#N)ccc1/C=C1N=C(/C=C\\c2ccccc2)N(c2ccc(C(=O)O)cc2)C\\1=O"
  assay-system: "U251 CNS"
  TGI: "> 100 µM"
- molecule: "O=[N+]([O-])/C(=C/C=C/c1ccccc1)c1ccccc1"
  assay-system: "U251 CNS"
  TGI: "3.17 µM"
- molecule: "COC(=O)c1c2c(cc3c1CC1(Cc4cc5c(cc4C1)CCCC5)C3)CCCC2"
  assay-system: "U251 CNS"
  TGI: "> 100 µM"
- molecule: "CCOC(=O)NCC(=O)NCC(=O)NCC(N)=O"
  assay-system: "U251 CNS"
  TGI: "> 100 µM"
- molecule: "CC(C)(C)OC(=O)CC(S(=O)(=O)c1ccccc1)S(=O)(=O)c1ccccc1"
  assay-system: "U251 CNS"
  TGI: "35.9 µM"
- molecule: "Clc1cc(Cl)cc(Nc2ccc3c(OCCCN4CCOCC4)cccc3n2)c1"
  assay-system: "U251 CNS"
  TGI: "3.95 µM"
- molecule: "COc1ccccc1CNCCCN1C(=O)c2ccc3c4c(ccc(c24)C1=O)C(=O)N(CCCNCCCCN)C3=O"
  assay-system: "U251 CNS"
  TGI: "0.731 µM"
- molecule: "CCCC/C=C1/CCC(CN(C)C)C1=O (stereo unspecified)"
  assay-system: "U251 CNS"
  TGI: "4.19 µM"
- molecule: "CN(C)c1ccc(/C=C2\\N=C(c3ccccc3)N(c3nc4ccc(Sc5ccccc5)cc4[nH]3)C2=O)cc1"
  assay-system: "U251 CNS"
  TGI: "> 100 µM"
- molecule: "O=C([CH-]C(=O)c1ccccc1)c1ccccc1.[CH2-]C.[CH2-]C.[Tl+3]"
  assay-system: "U251 CNS"
  TGI: "> 100 µM"
- molecule: "O=C(/C=C/c1ccccn1)c1ccccc1"
  assay-system: "U251 CNS"
  TGI: "5.43 µM"
- molecule: "CCOC(=O)c1cnc2c(ccc3ncccc32)c1OCC"
  assay-system: "U251 CNS"
  TGI: "> 100 µM"
- molecule: "CC(=O)Nc1ccc2c(c1)[nH]c(=O)c1cc(Cl)ccc12"
  assay-system: "U251 CNS"
  TGI: "> 100 µM"
- molecule: "Cc1cc(C)nc(NS(=O)(=O)c2ccc(NC(=O)c3ccc4nc5ccccc5c(Nc5ccc(S(=O)(=O)N=C(N)N)cc5)c4c3)cc2)n1"
  assay-system: "U251 CNS"
  TGI: "> 100 µM"
- molecule: "O=C(NCCOC(=O)CCCCCCCCC(=O)OCCNC(=O)NC(=O)c1cn(Cc2ccccc2)c(=O)[nH]c1=O)NC(=O)c1cn(Cc2ccccc2)c(=O)[nH]c1=O"
  assay-system: "U251 CNS"
  TGI: "> 100 µM"

----------
Below: a set of entries, each annotated with reported TGI.
# Tested on: RXF-631 renal
# test: NCI tumour cell line growth inhibition, 48 h

- molecule: "COc1cc([C@H]2c3cc4c(cc3[C@H](NCc3ccc(F)cc3)C3COC(=O)[C@H]32)OCO4)cc(OC)c1O (some centres undefined)"
  assay-system: "RXF-631 renal"
  TGI: "14.3 µM"
- molecule: "CNC(=O)N(CCCCC(NC(C)=O)C(=O)NCc1ccccc1)Cc1ccccc1 (centres undefined)"
  assay-system: "RXF-631 renal"
  TGI: "> 100 µM"
- molecule: "c1ccc2c(c1)n1nnnc1c1nnnn21"
  assay-system: "RXF-631 renal"
  TGI: "> 100 µM"
- molecule: "CN(C)CC(=O)N1CCc2c([nH]c3ccccc23)C1c1cccnc1 (centres undefined)"
  assay-system: "RXF-631 renal"
  TGI: "> 100 µM"

----------
# Test system: SK-OV-3 ovarian
# test: NCI tumour cell line growth inhibition, 48 h
Each entry below carries its reported TGI.

- compound: "Nc1c([N+](=O)[O-])ncn1C1OC(CO)C(O)C1O (configuration not stated)"
  TGI: "> 100 µM"
- compound: "CC1(C)N=C(N)N=C(N)N1c1ccc(CCCCCCc2ccc(S(=O)(=O)F)cc2)cc1"
  TGI: "23.3 µM"
- compound: "Cc1cc2nc3c(C(OC4OC(CO)C(O)C(O)C4O)C(O)CO)nn(-c4ccc(F)cc4)c3nc2cc1C (configuration not stated)"
  TGI: "> 100 µM"
- compound: "c1csc(-c2cc(-c3ccsc3)cs2)c1"
  TGI: "> 100 µM"
- compound: "O=[N+]([O-])/C=C/c1cn(CCCCCCCCn2cc(/C=C/[N+](=O)[O-])c3ccccc32)c2ccccc12"
  TGI: "> 10 µM"
- compound: "CCOC(=O)C(=O)Nc1nc2ccc(OC)cc2s1"
  TGI: "> 100 µM"
- compound: "N#CC(c1cc(Cl)ncn1)c1nc2cc(C(F)(F)F)ccc2s1 (configuration not stated)"
  TGI: "53.7 µM"

----------
Parameter TGI: see the listing below.
# Test system: UO-31 renal
# test: NCI tumour cell line growth inhibition, 48 h

- compound: "CCOC(=O)C(NC(=O)c1ccccc1)(Nc1ccc(S(=O)(=O)Nc2cc(C)on2)cc1)C(F)(F)F (stereo unspecified)"
  assay-system: "UO-31 renal"
  TGI: "> 100 µM"
- compound: "O=C(/C=N/O)Nc1cccc(Cl)c1I"
  assay-system: "UO-31 renal"
  TGI: "78.3 µM"
- compound: "FC(F)(Sc1ncccn1)c1nc2ccccc2o1"
  assay-system: "UO-31 renal"
  TGI: "> 100 µM"
- compound: "O=C(NCCOC(=O)CCCCCCCCC(=O)OCCNC(=O)NC(=O)c1cn(Cc2ccccc2)c(=O)[nH]c1=O)NC(=O)c1cn(Cc2ccccc2)c(=O)[nH]c1=O"
  assay-system: "UO-31 renal"
  TGI: "> 100 µM"
- compound: "COc1cc2ccc(C(C)NCC#N)cc2cc1OC (stereo unspecified)"
  assay-system: "UO-31 renal"
  TGI: "> 100 µM"
- compound: "COc1ccc([C@H]2c3[nH]c4ccccc4c3C[C@H]3C(=O)N(CCCCCCC(=O)NO)CC(=O)N23)cc1"
  assay-system: "UO-31 renal"
  TGI: "> 33.3 µM"
- compound: "CN(Cc1ccccc1)C(=S)S"
  assay-system: "UO-31 renal"
  TGI: "77.8 µM"
- compound: "COc1ccc(C2NC(c3ccc(OC)cc3)C(C)C(=O)C2C)cc1 (stereo unspecified)"
  assay-system: "UO-31 renal"
  TGI: "> 100 µM"
- compound: "COc1cc(OC)c(OC)cc1/C=C\\c1ccnc2ccccc12"
  assay-system: "UO-31 renal"
  TGI: "> 80.6 µM"
- compound: "c1ccc(-c2nc3ccccc3[nH]2)c(OCCCCCOc2ccccc2-c2nc3ccccc3[nH]2)c1"
  assay-system: "UO-31 renal"
  TGI: "36 µM"
- compound: "Cc1c(C)c2c(c(N)c1C#N)C(=O)N(NC(=S)Nc1ccccc1)C2=O"
  assay-system: "UO-31 renal"
  TGI: "> 100 µM"
